Values were extracted from the array DNA melting data of Ke et al. (doi:10.1101/2024.01.08.574731).

Assay: folding enthalpy; higher = less favourable; fluorescence melt of hairpins on a sequencing array, two-state fit
Conditions: sodium 0.088 M
Measured Parameter: folding enthalpy (kcal/mol)
Form entry: value (kcal/mol) — number only.

Record excerpt, results attached:
{"columns": ["Sequence Chain", "folding enthalpy (kcal/mol)"],
 "data": [
  ["ACTCGGAAACGAGT (((((....)))))", -20.8],
  ["GACTTGACGAAAGTCGTC (((..(((....))))))", -15.8],
  ["GCCAACGAAAGTTCAGGC ((((((....)))..)))", -28.2],
  ["GATCTGTTAACAGATC ((((((....))))))", -39.8],
  ["GACTATGCGAAAGCAGTC (((..(((....))))))", -15.3]
]}

INPUT: Please give the documented folding enthalpy of GATTACGAAAGTACATC ((((((....))).)))
OUTPUT: -17.7

INPUT: Please give the documented folding enthalpy of GATCCTACAAAGGATC ((((((....))))))
OUTPUT: -36.3

INPUT: Please give the documented folding enthalpy of GTACGACGAAAGTCCTAC (((.(((....))).)))
OUTPUT: -13.2

INPUT: Please give the documented folding enthalpy of GCGGCATCCGC ((((...))))
OUTPUT: -17.9

INPUT: Please give the documented folding enthalpy of GGAGCACGAAAGTGTCC (((.(((....))))))
OUTPUT: -16.4

INPUT: Please give the documented folding enthalpy of GATCGAGGTTTCGATC ((((((....))))))
OUTPUT: -44.7
